Reference for the values: ChEMBL document CHEMBL3091306

# Measurement target: Sodium-dependent serotonin transporter (Rattus norvegicus, UniProt P31652)
# Sequence (P31652 whole entry): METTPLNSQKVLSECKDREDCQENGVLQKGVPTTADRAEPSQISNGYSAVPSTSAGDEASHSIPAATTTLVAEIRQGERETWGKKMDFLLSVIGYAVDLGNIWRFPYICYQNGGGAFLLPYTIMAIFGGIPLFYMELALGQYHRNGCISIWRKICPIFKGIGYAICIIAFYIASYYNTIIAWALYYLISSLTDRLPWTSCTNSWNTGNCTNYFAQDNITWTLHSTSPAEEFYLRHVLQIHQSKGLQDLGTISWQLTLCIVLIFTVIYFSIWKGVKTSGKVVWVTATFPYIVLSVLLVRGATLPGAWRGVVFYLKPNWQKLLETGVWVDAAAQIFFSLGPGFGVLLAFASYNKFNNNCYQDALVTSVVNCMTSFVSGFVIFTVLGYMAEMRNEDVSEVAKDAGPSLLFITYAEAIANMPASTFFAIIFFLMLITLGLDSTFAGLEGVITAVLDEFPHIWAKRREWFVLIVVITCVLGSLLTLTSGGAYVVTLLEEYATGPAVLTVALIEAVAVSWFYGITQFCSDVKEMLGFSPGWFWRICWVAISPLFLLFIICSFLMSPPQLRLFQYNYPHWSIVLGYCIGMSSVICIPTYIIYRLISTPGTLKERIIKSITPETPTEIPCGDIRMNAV
# Assay remarks: Displacement of [3H]paroxetine from SERT in rat cortical membranes after 6 mins by liquid scintillation counting
Rule for this label: y means IC50 is less than 0.04 µM; n means IC50 is at least 0.04 µM.

Answered examples (5):
Fc1ccc2[nH]cc(CCCN3CCN(CCCc4c[nH]c5ccccc45)CC3)c2c1 y
COc1ccc2[nH]cc(CCCN3CCN(CCCc4c[nH]c5ccccc45)CC3)c2c1 n
c1ccc2c(CCCN3CCN(CCCc4c[nH]c5ccccc45)CC3)c[nH]c2c1 y
Brc1ccc2[nH]cc(CCCN3CCN(CCCc4c[nH]c5ccc(Br)cc45)CC3)c2c1 n
Fc1ccc2[nH]cc(CCCN3CCN(CCCc4c[nH]c5ccc(F)cc45)CC3)c2c1 y

Asked: Is IC50 of COc1ccc2[nH]cc(CCCN3CCN(CCCc4c[nH]c5ccc(F)cc45)CC3)c2c1 strictly below 0.04 µM?
Given back: y

Asked: Is IC50 of Fc1ccc2[nH]cc(CCCN3CCN(CCCc4c[nH]c5ccc(Br)cc45)CC3)c2c1 strictly below 0.04 µM?
Given back: n

Asked: Is IC50 of COc1ccc2[nH]cc(CCCN3CCN(CCCc4c[nH]c5ccc(OC)cc45)CC3)c2c1 strictly below 0.04 µM?
Given back: n

Asked: Is IC50 of Brc1ccc2[nH]cc(CCCN3CCN(CCCc4c[nH]c5ccccc45)CC3)c2c1 strictly below 0.04 µM?
Given back: n
